tested on: HCT-116 cell line; assay: Inhibition of cell growth, tetrazolium salt (MTT) assay; assay type: cell-based; conditions: 0.1 μM compound; HCT-116; Table 3
Below, each of the compounds is paired with its reported HCT-116 % Inhibition at 0.1 μM value.

smiles-entry	test-system	reading-unit	HCT-116 % Inhibition at 0.1 μM
CN(C)c1ccc(N=Nc2ccc(S(=O)(=O)N3CCC(Nc4nc(N)c(C(=O)c5c(F)cccc5F)s4)CC3)cc2)cc1	HCT-116 cell line	%	20
COC(=O)c1ccccc1S(=O)(=O)N1CCC(Nc2nc(N)c(C(=O)c3c(F)cccc3F)s2)CC1	HCT-116 cell line	%	7
Cc1ccc(S(=O)(=O)N2CCC(Nc3nc(N)c(C(=O)c4c(F)cccc4F)s3)CC2)cc1	HCT-116 cell line	%	19
COc1ccc(C)cc1S(=O)(=O)N1CCC(Nc2nc(N)c(C(=O)c3c(F)cccc3F)s2)CC1	HCT-116 cell line	%	19

====

system: HCT-116 cell line; test: Inhibition of cell growth, tetrazolium salt (MTT) assay; format: cell-based; conditions: Homo sapiens, HCT-116, 120 h, first HCT-116 column (c4); MTT, three to five days; read-out: HCT-116 IC50
Counter-ions that a name gives are not always drawn.
API: label(entry) gives True if the entry's IC50 is strictly smaller than 400 nM; on equality or larger values it gives False.

compound	test-system	category
Nc1nc(NC2CCN(S(=O)(=O)CCN3CCCC3)CC2)sc1C(=O)c1c(F)cccc1F [Example K35]	HCT-116 cell line	True
Nc1nc(NC2CCN(Cc3ccccn3)CC2)sc1C(=O)c1c(F)cccc1F [Example M1]	HCT-116 cell line	False
Nc1nc(NC2CCN(S(=O)(=O)CCCSc3ccncc3)CC2)sc1C(=O)c1c(F)cccc1F [Example K23]	HCT-116 cell line	False
CN1CCC(c2ccc(S(=O)(=O)N3CCC(Nc4nc(N)c(C(=O)c5c(F)cccc5F)s4)CC3)cc2)C1 (stereo not shown) [Example F25, Dihydrochloride]	HCT-116 cell line	True
CC1CCC(C)N1CCS(=O)(=O)N1CCC(Nc2nc(N)c(C(=O)c3c(F)cccc3F)s2)CC1 (mixture of isomers) [Example K26, Trifluoroacetic Acid Salt]	HCT-116 cell line	True
CC(C)(C)CNCCS(=O)(=O)N1CCC(Nc2nc(N)c(C(=O)c3c(F)cccc3F)s2)CC1 [Example K51]	HCT-116 cell line	True

====

Target: human CDK4 and genetically truncated (1-264) cyclin D3 (Homo sapiens, UniProt P11802)
Sequence (P11802 whole entry, the tested form may be a part): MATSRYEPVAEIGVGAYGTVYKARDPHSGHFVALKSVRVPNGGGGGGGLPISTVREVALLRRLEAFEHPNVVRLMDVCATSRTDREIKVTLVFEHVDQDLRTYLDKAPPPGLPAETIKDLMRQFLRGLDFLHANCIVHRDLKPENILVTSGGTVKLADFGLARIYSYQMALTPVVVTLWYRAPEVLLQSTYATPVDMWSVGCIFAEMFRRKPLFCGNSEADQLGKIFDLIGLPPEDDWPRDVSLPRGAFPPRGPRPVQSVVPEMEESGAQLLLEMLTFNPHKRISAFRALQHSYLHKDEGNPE
Sequence (P30281 1-264 partner): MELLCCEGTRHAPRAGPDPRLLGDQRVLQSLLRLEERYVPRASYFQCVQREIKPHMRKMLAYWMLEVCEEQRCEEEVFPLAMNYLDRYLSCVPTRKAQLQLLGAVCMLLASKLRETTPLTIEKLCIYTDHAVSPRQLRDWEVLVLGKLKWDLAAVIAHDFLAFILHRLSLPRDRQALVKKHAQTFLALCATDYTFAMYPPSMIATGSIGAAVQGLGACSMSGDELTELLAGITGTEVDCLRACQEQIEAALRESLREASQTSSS
Experiment: Inhibition of CDK4/Cyclin D Retinoblastoma Kinase Activity
Assay type: biochemical
Details: 0.03 μM compound; Table 4
Experimental: Cyclin-dependent kinase activity was measured by quantifying the enzyme-catalyzed, time-dependent incorporation of radioactive phosphate from [^32P]ATP or [^33P]ATP into a protein substrate. […] The phosphorylated substrate was then captured on a nitrocellulose or phosphocellulose membrane using a 96-well filtration manifold, and unincorporated radioactivity was removed by repeated washing with 0.85% phosphoric acid. Radioactivity was quantified by exposing the dried membranes to a phosphorimager. […]
Consider the following molecules and their measured CDK4 % Inhibition at 0.03 μM readings.

smiles-entry	CDK4 % Inhibition at 0.03 μM (%)
COc1cc(C(=O)N2CCC(Nc3nc(N)c(C(=O)c4c(F)cccc4F)s3)CC2)cc(OC)c1OC	73
Nc1nc(NC2CCN(C(=O)c3cccc(Br)c3)CC2)sc1C(=O)c1c(F)cccc1F	73
Cc1ccccc1C(=O)N1CCC(Nc2nc(N)c(C(=O)c3c(F)cccc3F)s2)CC1	45
Nc1nc(NC2CCN(C(=O)COCc3ccccc3)CC2)sc1C(=O)c1c(F)cccc1F	20
